Reference for the values: the supplement of paper PMC10567573

B1: CCDC6 (parent)
chain: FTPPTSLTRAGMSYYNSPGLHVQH

Variants of: B1
Test: protein stability index of a GFP-peptide fusion (GPS, HEK-293T) (PSI 1-6); higher = more stable;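 further: lentivirally expressed fusions sorted by FACS into six bins by GFP to DsRed ratio, PSI derived from sequencing read proportions per bin multiplied by bin number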
Details: c terminus: a fixed tail appended
Short version: protein stability index at least 2 is 1, less is 0.

| mutant | discrete_label |
| --- | --- |
| V22M | 0 |
| Y15W | 1 |
| Y15M | 0 |
| M12R | 0 |
| S17Q | 0 |

### Prompt Determine whether measured protein stability index meets or exceeds 2 for T5Q
### Response 0

### Prompt Also need L7V , thanks.
### Response 0

### Prompt Same question for N16M please.
### Response 0

### Prompt And the next one, A10S ?
### Response 1
